Origin of the recorded values: paper PMC11077049

molecular target: RRM tandem F56A (human, UniProt Q07955 1-196, F56A); test: FP; FP, 10 nM RNA, 37 C 30 min then 25 C 10 min; 21-mers: 25 mM KCl, 0.25 M Arg/Glu, 20 mM Tris-HCl pH 7.5, 0.1 mM EDTA, 0.1 mM TCEP, 0.02% Tween 20; 8-mers: 35 mM; conditions: protein: recombinant; tags: SUMO; label: 5' fluorescein; G-quadruplex (parallel)
Sequence (Q07955 1-196 F56A): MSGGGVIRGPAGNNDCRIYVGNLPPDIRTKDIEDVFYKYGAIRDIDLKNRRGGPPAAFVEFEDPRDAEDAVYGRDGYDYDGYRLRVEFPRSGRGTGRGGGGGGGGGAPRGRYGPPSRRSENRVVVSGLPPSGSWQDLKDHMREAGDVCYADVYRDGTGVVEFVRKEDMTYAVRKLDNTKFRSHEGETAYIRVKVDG
propertyMeasured: Kd (µM)
Give bare numbers, in µM.

Documented Kd of GGGGGCUGGGCGGGGACCGGG (structured_RNA) [ARPC2 GQ] : 7
